System: Ipomoea hederacea (IPOHE)
Experiment: Pre-emergence herbicidal glasshouse test, IPOHE
Format: in vivo
Conditions: 125 g/h, evaluated after 13 days, five-point scale
Give percentage damage caused to the plant, PRE Application IPOHE for every item shown.

Check out these entries, answers already filled in.
CC(C)OC(=O)Nc1c(OC(F)F)ccc(C(=O)Nc2nnnn2C)c1Cl [Compound 1.017]
4 (4=60-79%)
CCOC(=O)Nc1c(OC(F)(F)F)ccc(C(=O)Nc2nnnn2CC)c1Cl [Compound 1.004]
4 (4=60-79%)
CCN(C(=O)OC)c1c(OC(F)F)ccc(C(=O)Nc2nnnn2C)c1Cl [Compound 1.043]
3 (3=40-59%)
COC(=O)Nc1c(OC(F)F)ccc(C(=O)Nc2nnnn2C)c1Cl [Compound 1.005]
4 (4=60-79%)

Batch lookup, percentage damage caused to the plant, PRE Application IPOHE per entry.
1. CCOC(=O)N(CC)c1c(OC(F)F)ccc(C(=O)Nc2nnnn2C)c1Cl [Compound 1.044]
2. COC(=O)N(C)c1c(OC(F)F)ccc(C(=O)Nc2nnnn2C)c1Cl [Compound 1.042]
3. Cn1nnnc1NC(=O)c1ccc(OC(F)F)c(NC(=O)OCCC#N)c1Cl [Compound 1.024]
4. COC(=O)Nc1c(OC(F)(F)F)ccc(C(=O)Nc2nnnn2C)c1Cl [Compound 1.001]

Result string:
2 (2=20-39%)
4 (4=60-79%)
5 (5=80-100%)
3 (3=40-59%)
